# System: CYP2C9
# Assay Explanation: in vitro
# Study Conditions: Sprague-Dawley, rat, microsomes, pH 7.4, % inhibition, 1 μM (low concentration)
Readout Label: inhibition at 7.5 min, 1 μM (%)
Give bare numbers, in %.

Prompt: Fill blank: measured inhibition at 7.5 min, 1 μM of the compound `O=c1c(-c2ccc(O)cc2)coc2cc(O)cc(O)c12` is ____.
Response: 49.6

----------
# Test system: CYP2C9
# Assay Explanation: in vitro
# Study Conditions: Sprague-Dawley, rat, microsomes, pH 7.4, % inhibition of tolbutamide metabolism in microsomes, 10 Mm; reaction time 7.5 minute, n = 3
Readout Label: inhibition at 7.5 min, 10 μM (%)
One number for each entry, in %.

Prompt: Identify the measured inhibition at 7.5 min, 10 μM of `O=c1c(-c2ccc(O)cc2)coc2cc(O)cc(O)c12` for CYP2C9.
Response: 67.7
